# target.under.test: Human BCL6 protein (N-terminal HiBiT tagged BCL6 in HT1080 cells) (Homo sapiens, UniProt P41182+Q96SW2)
# Construct: Human BCL6 protein coding open reading frame; expressed in transfected cells; host or cells: HT1080 (ATCC CCL-121), stably transduced with lentivirus pLV-UBC-N-HiBiT-BCL6-PGK-puro
# assay.overview: HiBiT based BCL6 degradation assay
# Type: cell-based
# study.conditions: HT1080 cells expressing N-terminal HiBiT tagged BCL6; 5 hours incubation; BCL6 degradation normalized with DMSO control
property: Ymin (5 hr)

1) CNC(=O)COc1cc2cc(Nc3nc(N4CCC5(CCC(Nc6ccc7c(C8CCC(=O)NC8=O)nn(C)c7c6)CC5)C4)ncc3Cl)ccc2n(C)c1=O (centres unmarked) [Compound 343]    +++ (25% < Ymin ≤ 50%)
2) CNC(=O)COc1cc2cc(Nc3nc(N4CC5CCC(Nc6ccc7c(C8CCC(=O)NC8=O)nn(C)c7c6)CC5C4)ncc3Cl)ccc2n(C)c1=O (centres unmarked) [Compound 338]    ++ (50% < Ymin ≤ 70%)
3) CNC(=O)COc1cc2cc(Nc3nc(N4CCC(CN5CCN(C(=O)c6cccc(C7CCC(=O)NC7=O)c6)CC5)CC4)ncc3Cl)ccc2n(C)c1=O (centres unmarked) [Compound 314]    ++ (50% < Ymin ≤ 70%)
4) CNC(=O)COc1cc2cc(Nc3nc(NC[C@H]4CC[C@@H](Nc5cccc6c(C7CCC(=O)NC7=O)nn(C)c56)CC4)ncc3Cl)ccc2n(C)c1=O (some centres unmarked) [Compound 304a]    ++ (50% < Ymin ≤ 70%)
5) CNC(=O)COc1cc2cc(Nc3nc(N4CCC(OC5CCN(c6ccc7c(C8CCC(=O)NC8=O)nn(C)c7c6)CC5)CC4)ncc3Cl)ccc2n(C)c1=O (centres unmarked) [Compound 287]    +++ (25% < Ymin ≤ 50%)
6) CNC(=O)COc1cc2cc(Nc3nc(N4CCN([C@H](C)C5CCN(c6cccc7c(C8CCC(=O)NC8=O)nn(C)c67)CC5)CC4)ncc3Cl)ccc2n(C)c1=O (single isomer, unassigned) [Compound 307b]    +++ (25% < Ymin ≤ 50%)
7) CNC(=O)COc1cc2cc(Nc3nc(NC[C@H]4CC[C@H](Nc5cccc(C6CCC(=O)NC6=O)c5)CC4)ncc3Cl)ccc2n(C)c1=O (some centres unmarked) [Compound 262b]    ++ (50% < Ymin ≤ 70%)
8) CNC(=O)COc1cc2cc(Nc3nc(N4CC[C@H](COc5ccc6c(C7CCC(=O)NC7=O)nn(C)c6c5)C4)ncc3Cl)ccc2n(C)c1=O (some centres unmarked) [Compound 313a]    ++ (50% < Ymin ≤ 70%)
9) CNC(=O)COc1cc2cc(Nc3nc(N4CCN(CC5CCC6(CC5)CN(c5cccc7c(C8CCC(=O)NC8=O)nn(C)c57)C6)CC4)ncc3Cl)ccc2n(C(C)C)c1=O (centres unmarked) [Compound 311]    ++ (50% < Ymin ≤ 70%)
10) CNC(=O)COc1cc2cc(Nc3nc(N4CCC[C@@H](CNc5cccc(C6CCC(=O)NC6=O)c5)C4)ncc3Cl)ccc2n(C)c1=O (some centres unmarked) [Compound 275b]    ++ (50% < Ymin ≤ 70%)
11) CNC(=O)COc1cc2cc(Nc3nc(N4CCC[C@H](Nc5ccc6c(C7CCC(=O)NC7=O)nn(C)c6c5)C4)ncc3Cl)ccc2n(C)c1=O (some centres unmarked) [Compound 280a]    ++ (50% < Ymin ≤ 70%)
12) CNC(=O)COc1cc2cc(Nc3nc(N4CC5(CCC(Nc6cccc7c(C8CCC(=O)NC8=O)nn(C)c67)CC5)C4)ncc3Cl)ccc2n(C)c1=O (centres unmarked) [Compound 342]    +++ (25% < Ymin ≤ 50%)
